- Test system: DU-145 prostate
- Test name: NCI-60 one-dose screen, 48 h (100 = growth as untreated, 0 = no growth, -100 = all killed)
- Test parameters: 10 µM unless noted
This is part of a sample that, as a whole, favours compounds with a hit. Of some 83,000 tested, about 20% had one in any assay. Active and inactive are the calls of the source. The calls were made as follows: active = growth percent below 10; inactive = the rest.
Outcome measure: growth

# input compound: CCN(C(=O)N1CCN(c2cc3c(cc2F)c(=O)c(C(=O)O)cn3C2CC2)CC1)c1nc(-c2ccc(Cl)cc2)cs1 ; wanted: its growth
23.5% (inactive)

Next: CCc1n(Cc2ccc3ccccc3c2)cc[n+]1Cc1ccc2ccccc2c1
23.8% (inactive)

---

- System: NCI-H460 lung
- Test name: NCI-60 one-dose screen, 48 h (100 = growth as untreated, 0 = no growth, -100 = all killed)
- Test parameters: 10 µM unless noted
The panel holds about 83,000 compounds, 20% with a hit somewhere; the sample as a whole holds those more often. Active and inactive are the calls of the source. How the source made its calls: active means growth percent below 10; inactive means the rest.
Reported growth values are given for each entry in this list.

O=C(c1ccc(-c2ccccc2)cc1)c1ccc([N+](=O)[O-])cc1 ... 109% (inactive)
Nc1c(C(=O)Nc2ccccc2Cl)sc2nc3c(cc12)C(O)CCC3 (stereo not given) ... 24.5% (inactive)
COc1ccc(C2=Nc3c/c(=C\c4c(O)[nH]c5ccc(Cl)cc45)ccc3=N2)cc1 ... 43.5% (inactive)
COc1ccc2c(c1)c(-c1noc(C(=O)c3cn(C)c4ccc(Br)cc34)n1)cn2C ... 105% (inactive)
COc1ccc(/C=N/NC(=O)CCN2c3ccccc3Sc3ccccc32)cc1 ... 85.4% (inactive)
CC[C@]12C=CCN3CC[C@@]4(c5cc(NC(=O)CCC(=O)OCc6cn(Cc7ccc(F)cc7)nn6)c(OC)cc5N(C)[C@H]4[C@@](O)(C(=O)OC)[C@@H]1OC(C)=O)[C@@H]32 ... 106% (inactive)
CNC(=O)c1cc(Oc2ccc3nc(NC(C)=O)sc3c2)ccn1 ... 104% (inactive)
O=C1Nc2ccccc2/C1=C\c1nc(-c2ccccc2)n2ccccc12 ... 94.4% (inactive)

// growth lookup, key: CCOP(=O)(OCC)c1nc(-c2ccccc2)oc1NCc1cccnc1
107% (inactive)

Also, CCCCCCCCCCCCCCCC(N)c1ccccc1 (stereo not given) please.
-66.8% (active)

---

- Tested on: SW-620 colon
- Test name: NCI-60 one-dose screen, 48 h
- Test parameters: 10 µM unless noted
This is part of a sample that, as a whole, favours compounds with a hit. Of some 83,000 tested, about 20% had one in any assay. The source made the active and inactive calls. The calls were made as follows: active = growth percent below 10; inactive = the rest.
Pick one and only one: active, inactive

O=C(Nn1c2c(sc1=NCc1ccccc1)C(=O)c1ccccc1C2=O)c1cc2ccc1CCc1ccc(cc1)CC2 ... inactive
C#CCOc1ccc2ncnc(Nc3ccc(NC(=O)CCl)cc3)c2c1 ... active
COc1ccc(-c2nn(-c3ccccc3)cc2/C=C2/SC(=S)N(C)C2=O)cc1 ... inactive
Cc1ccc(CNc2ccc(Cl)cc2NCc2ccc(C)c(O)c2)cc1O ... inactive

For CCN(CC)CCOc1ccc(C(=C(C)c2ccc(Cl)cc2)c2ccc(OCCN(CC)CC)cc2)cc1 , what call appears in the results of this test?
active

Next molecule: CCCCCOc1ccc(C(=O)/C(Br)=C/C(=O)O)cc1
inactive

meta.source: PubChem BioAssay (NCI)
